B1: SLC2A12 (parent)
chain: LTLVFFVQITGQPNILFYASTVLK

# Variants of: B1
# assay-overview: protein stability index of a GFP-peptide fusion (GPS, HEK-293T) (PSI 1-6); higher = more stable;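 further: lentivirally expressed fusions sorted by FACS into six bins by GFP to DsRed ratio, PSI derived from sequencing read proportions per bin multiplied by bin number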
# reported-conditions: c terminus: a fixed tail appended
Decide using protein stability index: a value greater than or equal to 3 is fulfilled, a smaller one is not fulfilled.

1) L3D not fulfilled
2) T2D not fulfilled
3) P13I not fulfilled
4) F6Q fulfilled
5) Q8C fulfilled
6) V22S not fulfilled
7) L1E not fulfilled
8) K24V fulfilled
9) I9F not fulfilled
10) L16A fulfilled
11) S20E fulfilled
12) V22Q fulfilled
13) T2C not fulfilled
14) T10D not fulfilled
15) T2L fulfilled
16) L3I fulfilled
17) L3H not fulfilled
18) S20W fulfilled
19) L3A fulfilled
20) T21F fulfilled
